Below are pIC50 measurements against Squalene synthase (Homo sapiens) drawn from the literature.
# Target Under Test: Squalene synthase (Homo sapiens)
# Sequence (P37268 whole entry): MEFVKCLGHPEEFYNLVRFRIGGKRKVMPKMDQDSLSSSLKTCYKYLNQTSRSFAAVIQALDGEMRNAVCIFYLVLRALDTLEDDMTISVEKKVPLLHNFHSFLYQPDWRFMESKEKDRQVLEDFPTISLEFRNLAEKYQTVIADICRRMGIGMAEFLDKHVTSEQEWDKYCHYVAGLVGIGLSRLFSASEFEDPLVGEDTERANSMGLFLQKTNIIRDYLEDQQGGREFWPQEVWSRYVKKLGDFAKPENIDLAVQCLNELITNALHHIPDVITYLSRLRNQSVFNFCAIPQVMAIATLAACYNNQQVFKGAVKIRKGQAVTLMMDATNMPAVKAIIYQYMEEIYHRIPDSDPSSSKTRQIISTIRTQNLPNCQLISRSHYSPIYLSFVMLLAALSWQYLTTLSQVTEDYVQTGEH
pIC50: −log10 of the molar value.
Output: class label from pIC50. Mapping: category 1: < 6; category 2: ≥ 6 and < 8; category 3: ≥ 8

Some entries whose results are on file:
COC(=O)CCC(=O)N(CC(C)(C)C)c1ccc(Cl)cc1C(O)c1ccccc1Cl (stereo not given)
category 1
CCNC(=O)C1CCN(C(=O)CCC(=O)N(CC(C)(C)C)c2ccc(Cl)cc2C(O)c2ccccc2Cl)CC1 (stereo not given)
category 3
CC(C)(C)CN(C(=O)CCC(=O)N1CCC(C(=O)O)CC1)c1ccc(Cl)cc1C(O)c1ccccc1F (stereo not given)
category 1
CC(=O)O[C@H](CCC[C@]12O[C@H](C(=O)O)[C@@](O)(C(=O)O)[C@](C(=O)O)(O1)[C@H](OC(=O)CC/C=C/[C@H](C)CCCc1ccccc1)[C@H]2O)[C@H](C)Cc1ccccc1
category 3
COc1ccccc1[C@H]1CN(CC(=O)N2CCCCC2)C(=O)[C@H](CC(C)C)c2ccc(Cl)cc21 (racemic)
category 2

Using the reported pIC50, which band applies to CCOC(=O)C1CCN(C(=O)CCC(=O)N(CC(C)(C)C)c2ccc(Cl)cc2C(O)c2cccc(OC)c2)CC1 (stereo not given) ?
category 2

Exam item: assign COc1cccc([C@H]2CN(CC(=O)N3CCC(C(=O)O)CC3)C(=O)[C@H](CC(C)C)c3ccc(Cl)cc32)c1OC (racemic) to the correct category.
category 2

State the class of the compound shown: CN(C)C(=O)C1CCN(C(=O)CCC(=O)N(CC(C)(C)C)c2ccc(Cl)cc2C(O)c2ccccc2Cl)CC1 (stereo not given)
category 2

Band of CCCCCCC[C@@H](CCC[C@]12O[C@H](C(=O)O)[C@@](O)(C(=O)O)[C@](C(=O)O)(O1)[C@H](OC(=O)CC/C=C/[C@@H](C)CCCc1ccccc1)[C@H]2O)OC(C)=O ?
category 3

Which band does CC(C)=CCC/C(C)=C/CC/C(C)=C/CC(C/C=C(\C)CC/C=C(\C)CCC=C(C)C)(P(=O)(O)O)P(=O)(O)CP(=O)(O)O (stereo not given) fall in?
category 1
